Entries and their measured IC50 follow.
- TESTED ON: CDK4/CyclinD1 (Homo sapiens)
- Sequence (P11802 whole entry): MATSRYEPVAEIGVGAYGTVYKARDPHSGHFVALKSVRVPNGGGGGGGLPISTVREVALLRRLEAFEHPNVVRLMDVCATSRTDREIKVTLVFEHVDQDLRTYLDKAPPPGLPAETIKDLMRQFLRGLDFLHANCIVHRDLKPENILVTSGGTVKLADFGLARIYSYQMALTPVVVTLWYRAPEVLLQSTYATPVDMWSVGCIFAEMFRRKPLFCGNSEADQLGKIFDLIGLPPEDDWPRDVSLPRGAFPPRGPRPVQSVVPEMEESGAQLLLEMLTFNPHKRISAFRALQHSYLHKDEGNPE
- Sequence (P24385 whole entry partner): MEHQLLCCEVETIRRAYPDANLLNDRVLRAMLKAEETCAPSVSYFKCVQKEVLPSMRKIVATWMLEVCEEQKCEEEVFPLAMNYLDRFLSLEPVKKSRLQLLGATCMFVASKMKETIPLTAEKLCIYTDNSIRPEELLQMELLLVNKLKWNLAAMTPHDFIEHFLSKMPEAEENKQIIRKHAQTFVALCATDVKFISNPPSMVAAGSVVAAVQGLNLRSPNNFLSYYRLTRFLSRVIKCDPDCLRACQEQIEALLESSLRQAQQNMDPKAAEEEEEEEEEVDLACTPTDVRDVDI
- PROTOCOL DESCRIPTION: CDK4/CyclinD1 kinase inhibitory activity (Caliper mobility shift)
- CONDITION NOTES: enzyme 20 nM, ATP 672 uM, 28° C. 30 min; read-out: CDK4/Cyclin D1 IC50

COMPOUND: CNC(C)(C)c1cnc2c(F)cc(-c3nc(N[C@@H]4CCOC[C@H]4O)ncc3Cl)cc2c1
IC50: 10 to 100 nM
//
COMPOUND: O[C@@H]1COCC[C@H]1Nc1ncc(Cl)c(-c2cc(F)c3ncc4c(c3c2)C2CCC(C4)N2)n1 (single isomer, unassigned) [Example 20b]
IC50: < 10 nM
//
COMPOUND: Cc1c(C(C)NC2CC2)cnc2c(F)cc(-c3nc(N[C@@H]4CCOC[C@H]4O)ncc3F)cc12 (single isomer, unassigned) [Example 93b]
IC50: < 10 nM

Next compound, please.
Prompt: Param item = O[C@@H]1COCC[C@H]1Nc1ncc(Cl)c(-c2cc(F)c3ncc4c(c3c2)CCNC4)n1 ; retrieve measured IC50.
Response: < 10 nM

Reference source for all entries: patent US20260242395A1
